target: T1, monomeric human PRLR (hPRLR.mmh; SEQ ID NO:401) (Homo sapiens, UniProt P16471); assay: Surface plasmon resonance (Biacore T200), antibody-capture format; type: binding; settings: 37° C., analyte hPRLR.mmh
T1 construct: soluble monomeric (hPRLR.mmh); mmh (myc-myc-hexahistidine) (C)
T1 sequence (P16471 with tags, fused parts or gaps): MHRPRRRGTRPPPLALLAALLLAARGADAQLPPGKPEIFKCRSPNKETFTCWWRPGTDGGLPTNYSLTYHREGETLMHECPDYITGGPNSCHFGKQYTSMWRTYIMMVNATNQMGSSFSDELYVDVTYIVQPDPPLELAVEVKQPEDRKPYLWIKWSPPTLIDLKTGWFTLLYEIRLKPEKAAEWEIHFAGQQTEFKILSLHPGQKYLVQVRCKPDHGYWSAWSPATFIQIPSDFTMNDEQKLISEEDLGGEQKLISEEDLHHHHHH
ka values by entry
Answer format: numeric, M/s implied, no suffix.

Some solved cases for reference:
H1H6804P: fully human anti-PRLR antibody, human IgG1 Fc; HCVR/LCVR SEQ ID NOs 242/250 (antibody, V domains shown) VH: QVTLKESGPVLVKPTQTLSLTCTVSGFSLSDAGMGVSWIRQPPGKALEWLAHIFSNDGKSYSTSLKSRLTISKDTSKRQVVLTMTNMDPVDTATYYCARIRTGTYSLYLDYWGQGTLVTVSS VL: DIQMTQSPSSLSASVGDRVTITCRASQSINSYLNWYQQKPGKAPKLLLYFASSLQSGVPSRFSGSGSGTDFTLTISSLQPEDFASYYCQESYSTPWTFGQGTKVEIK    607000
H1H6958N2: anti-PRLR antibody, receptor blocking, human IgG1 Fc form of H2M6958N2 of Table 1; HCVR/LCVR SEQ ID NOs 290/298 (antibody, V domains shown) VH: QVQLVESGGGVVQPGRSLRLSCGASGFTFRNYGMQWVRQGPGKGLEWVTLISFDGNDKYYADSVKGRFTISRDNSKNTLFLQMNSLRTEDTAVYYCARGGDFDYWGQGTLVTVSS VL: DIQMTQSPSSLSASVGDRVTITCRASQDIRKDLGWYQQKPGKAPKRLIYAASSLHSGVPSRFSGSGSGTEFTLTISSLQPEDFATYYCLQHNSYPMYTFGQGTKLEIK    413000
H1H6781P: fully human anti-PRLR antibody, human IgG1 Fc; HCVR/LCVR SEQ ID NOs 50/58 (antibody, V domains shown) VH: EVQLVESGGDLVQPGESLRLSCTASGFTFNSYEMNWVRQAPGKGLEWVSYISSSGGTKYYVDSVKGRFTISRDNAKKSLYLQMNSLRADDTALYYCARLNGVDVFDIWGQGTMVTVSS VL: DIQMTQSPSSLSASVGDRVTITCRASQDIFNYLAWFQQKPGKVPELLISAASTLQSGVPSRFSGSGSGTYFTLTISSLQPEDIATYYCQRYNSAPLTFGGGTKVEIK    339000
H1H6774P: fully human anti-PRLR antibody, human IgG1 Fc; HCVR/LCVR SEQ ID NOs 34/42 (antibody, V domains shown) VH: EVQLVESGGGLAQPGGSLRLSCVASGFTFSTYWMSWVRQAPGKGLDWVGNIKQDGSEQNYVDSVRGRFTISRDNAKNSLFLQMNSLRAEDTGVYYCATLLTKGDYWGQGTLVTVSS VL: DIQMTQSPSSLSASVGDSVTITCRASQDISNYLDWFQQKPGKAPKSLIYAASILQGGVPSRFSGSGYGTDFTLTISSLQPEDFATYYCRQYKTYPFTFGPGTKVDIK    1.07e+06
H1H6801P: fully human anti-PRLR antibody, human IgG1 Fc; HCVR/LCVR SEQ ID NOs 210/218 (antibody, V domains shown) VH: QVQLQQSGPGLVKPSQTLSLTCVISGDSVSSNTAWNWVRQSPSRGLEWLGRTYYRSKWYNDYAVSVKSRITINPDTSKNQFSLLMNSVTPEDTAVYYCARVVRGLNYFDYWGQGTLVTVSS VL: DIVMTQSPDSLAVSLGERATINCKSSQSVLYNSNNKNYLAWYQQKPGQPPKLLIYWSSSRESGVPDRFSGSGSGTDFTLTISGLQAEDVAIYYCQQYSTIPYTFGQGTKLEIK    951000
H1H6797P: fully human anti-PRLR antibody, human IgG1 Fc; HCVR/LCVR SEQ ID NOs 178/186 (antibody, V domains shown) VH: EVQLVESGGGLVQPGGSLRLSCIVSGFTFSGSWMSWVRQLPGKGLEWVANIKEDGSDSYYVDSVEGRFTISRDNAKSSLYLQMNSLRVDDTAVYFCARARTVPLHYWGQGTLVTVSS VL: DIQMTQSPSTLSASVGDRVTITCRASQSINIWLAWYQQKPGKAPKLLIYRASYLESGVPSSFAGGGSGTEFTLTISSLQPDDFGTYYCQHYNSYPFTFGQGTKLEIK    1.29e+06
H1H6800P: fully human anti-PRLR antibody, human IgG1 Fc; HCVR/LCVR SEQ ID NOs 194/202 (antibody, V domains shown) VH: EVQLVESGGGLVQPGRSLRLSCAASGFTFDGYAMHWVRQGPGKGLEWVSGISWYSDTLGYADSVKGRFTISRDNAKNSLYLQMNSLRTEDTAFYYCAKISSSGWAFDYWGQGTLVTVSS VL: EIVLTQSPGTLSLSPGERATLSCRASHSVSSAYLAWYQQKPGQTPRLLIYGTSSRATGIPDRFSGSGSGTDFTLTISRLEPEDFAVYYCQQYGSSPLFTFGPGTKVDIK    808000
H1H6976N: anti-PRLR antibody, human IgG1 Fc form of H2M6976N of Table 1; HCVR/LCVR SEQ ID NOs 386/394 (antibody, V domains shown, human IgG1 Fc) VH: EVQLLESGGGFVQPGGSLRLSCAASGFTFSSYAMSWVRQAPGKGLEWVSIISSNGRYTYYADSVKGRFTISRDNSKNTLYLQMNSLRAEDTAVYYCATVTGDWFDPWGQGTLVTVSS VL: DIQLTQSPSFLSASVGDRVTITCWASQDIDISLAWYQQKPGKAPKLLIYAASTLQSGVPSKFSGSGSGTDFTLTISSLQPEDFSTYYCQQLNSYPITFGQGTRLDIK    777000

Moving on to the next molecule.
Prompt: Data request, read-out ka, for H1H6960N: anti-PRLR antibody, human IgG1 Fc form of H2M6960N of Table 1; HCVR/LCVR SEQ ID NOs 322/330 (antibody, V domains shown, human IgG1 Fc) VH: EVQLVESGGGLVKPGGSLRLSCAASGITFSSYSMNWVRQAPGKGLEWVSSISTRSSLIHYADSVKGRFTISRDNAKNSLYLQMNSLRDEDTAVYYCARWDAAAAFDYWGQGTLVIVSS VL: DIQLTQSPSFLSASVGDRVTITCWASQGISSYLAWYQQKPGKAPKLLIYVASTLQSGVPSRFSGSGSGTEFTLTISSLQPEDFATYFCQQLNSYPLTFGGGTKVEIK
Response: 122000
